# IC50 per record follows
# system.name: PLK4 (h) (Homo sapiens, UniProt O00444)
# Sequence (O00444 whole entry): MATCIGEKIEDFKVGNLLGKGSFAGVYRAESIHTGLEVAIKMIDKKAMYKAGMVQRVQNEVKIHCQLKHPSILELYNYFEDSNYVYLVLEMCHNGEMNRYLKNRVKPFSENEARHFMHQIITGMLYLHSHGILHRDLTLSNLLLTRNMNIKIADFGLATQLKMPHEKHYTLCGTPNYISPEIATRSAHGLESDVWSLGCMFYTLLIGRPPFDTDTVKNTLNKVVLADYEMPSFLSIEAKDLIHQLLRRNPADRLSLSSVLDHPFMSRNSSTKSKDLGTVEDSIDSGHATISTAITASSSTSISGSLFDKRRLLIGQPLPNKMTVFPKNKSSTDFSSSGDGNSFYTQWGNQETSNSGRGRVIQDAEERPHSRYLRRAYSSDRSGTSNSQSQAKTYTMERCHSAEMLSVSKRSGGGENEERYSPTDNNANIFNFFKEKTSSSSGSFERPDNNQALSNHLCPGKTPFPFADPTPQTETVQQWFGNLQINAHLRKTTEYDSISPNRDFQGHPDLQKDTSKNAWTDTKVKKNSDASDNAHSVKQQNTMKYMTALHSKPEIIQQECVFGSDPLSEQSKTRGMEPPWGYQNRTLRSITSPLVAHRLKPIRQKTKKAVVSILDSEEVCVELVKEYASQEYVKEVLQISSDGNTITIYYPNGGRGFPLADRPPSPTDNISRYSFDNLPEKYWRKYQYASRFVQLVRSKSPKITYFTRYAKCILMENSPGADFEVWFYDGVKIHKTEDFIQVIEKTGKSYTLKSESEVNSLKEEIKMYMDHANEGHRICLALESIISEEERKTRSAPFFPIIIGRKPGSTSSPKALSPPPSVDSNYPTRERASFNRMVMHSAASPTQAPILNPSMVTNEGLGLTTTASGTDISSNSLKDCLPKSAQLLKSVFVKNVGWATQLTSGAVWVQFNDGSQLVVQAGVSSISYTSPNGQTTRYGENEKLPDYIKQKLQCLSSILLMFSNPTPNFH
# test.details: PLK-4 human kinase inhibition, scintillation proximity assay (SPA)
# Format: biochemical
# assay.context: read-out: PLK4 pIC50 (converted)
The answer is to be given in nM; state only the numeric part.

Some compounds with known IC50 results, for comparison:
>>> df
                               query_smiles                              system_name  property_name  unit_symbol  reported_value
0  C[C@@H]1NCc2cc(ccc2N2CCOCC2)Nc2nccc(n2)-c2cccc(c2)OCCCNC1=O  PLK4 (h) (Homo sapiens, UniProt O00444)           IC50           nM             447
1  COc1ccc2cc1CN[C@@H](CO)C(=O)N(C)CCCN(C)c1ccc(cn1)-c1ccnc(n1)N2  PLK4 (h) (Homo sapiens, UniProt O00444)           IC50           nM             933

Let us examine a further case.
Task: Identify the measured IC50 of COc1ccc2cc1CN(C)CCNC(=O)CN1CCN(CC1)Cc1cc(Br)cc(c1)Nc1nccc-2n1 for PLK4 (h) (Homo sapiens, UniProt O00444).
Output: 9330
